- System under test: SphK1 (Homo sapiens, UniProt Q9NYA1)
- Sequence (Q9NYA1 whole entry): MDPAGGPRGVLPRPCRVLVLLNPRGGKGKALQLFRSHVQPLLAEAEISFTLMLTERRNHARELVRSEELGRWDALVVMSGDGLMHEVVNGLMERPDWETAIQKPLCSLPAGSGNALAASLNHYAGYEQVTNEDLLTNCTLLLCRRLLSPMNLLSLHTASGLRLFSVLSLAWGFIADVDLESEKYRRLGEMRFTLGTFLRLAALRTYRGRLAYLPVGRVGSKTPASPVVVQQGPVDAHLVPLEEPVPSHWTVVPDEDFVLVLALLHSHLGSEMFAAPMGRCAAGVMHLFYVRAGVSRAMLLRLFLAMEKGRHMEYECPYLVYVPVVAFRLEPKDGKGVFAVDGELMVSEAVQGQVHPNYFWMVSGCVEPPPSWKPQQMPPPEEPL
Quantity: IC50 (µM)

smiles_string=COc1ccc2c3c([nH]c2c1)C(C)=NCC3 quantity=IC50 data_value=6.13

* * *

- Tested on: H1299 cells
- Method: MTT cell viability assay, H1299
- Assay type: cell-based
- Study conditions: Homo sapiens, NCI-H1299, 48 h, read-out: IC50, cell viability (MTT)
Quantity: IC50 (µM)

compound="COc1ccc2c3c([nH]c2c1)C(C)=NCC3 [harmaline]" data_value=48.2

* * *

- System under test: SphK1 (Homo sapiens)
- Method: Isothermal titration calorimetry of harmaline with SphK1
- Format: binding
- Study conditions: dissociation constant KD2, ITC, site 2
Quantity: Kd (µM)

compound="COc1ccc2c3c([nH]c2c1)C(C)=NCC3 [harmaline]" quantity=Kd value_unit=µM data_value=6.7
